Reference for the values: patent US6987093B2

# ASSAY_COMMENT: Azithromycin serum pharmacokinetics in mice
# Format: in vivo, mouse
# TEST_SETTINGS: female, CF-1, mouse; Serum PK; total dose 100 mg/kg oral; 2 days of dosing, 50 mg/kg/dose
MEASURED_METRIC: Cmax

Exam item: Cmax lookup needed for CC[C@H]1OC(=O)[C@H](C)[C@@H](O[C@H]2C[C@@](C)(OC)[C@@H](O)[C@H](C)O2)[C@H](C)[C@@H](O[C@@H]2O[C@H](C)C[C@H](N(C)C)[C@H]2O)[C@](C)(O)C[C@@H](C)CN(C)[C@H](C)[C@@H](O)[C@]1(C)O [Azithromycin] , thanks.
Marked response: 1300 ng/mL

###

# ASSAY_COMMENT: Azithromycin serum pharmacokinetics in mice
# Type: in vivo, mouse
# TEST_SETTINGS: female, CF-1, mouse; Serum PK; total dose 100 mg/kg oral; 1 day of dosing, 100 mg/kg/dose; read-out: AUC(0-tlast)
MEASURED_METRIC: AUC(0-t) (ng·h/mL)
Numbers only, in ng·h/mL.

Exam item: AUC(0-t) lookup needed for `CC[C@H]1OC(=O)[C@H](C)[C@@H](O[C@H]2C[C@@](C)(OC)[C@@H](O)[C@H](C)O2)[C@H](C)[C@@H](O[C@@H]2O[C@H](C)C[C@H](N(C)C)[C@H]2O)[C@](C)(O)C[C@@H](C)CN(C)[C@H](C)[C@@H](O)[C@]1(C)O` , thanks.
Marked response: 18800

###

# ASSAY_COMMENT: Azithromycin pulmonary tissue pharmacokinetics in mice
# Assay type: in vivo
# TEST_SETTINGS: female, CF-1, mouse, lung (pulmonary tissue); Pulmonary PK; total dose 100 mg/kg oral; 2 days of dosing, 50 mg/kg/dose
MEASURED_METRIC: Tmax
Provide the measurement as a number trailed by its unit.

Exam item: Tmax lookup needed for `CC[C@H]1OC(=O)[C@H](C)[C@@H](O[C@H]2C[C@@](C)(OC)[C@@H](O)[C@H](C)O2)[C@H](C)[C@@H](O[C@@H]2O[C@H](C)C[C@H](N(C)C)[C@H]2O)[C@](C)(O)C[C@@H](C)CN(C)[C@H](C)[C@@H](O)[C@]1(C)O` , thanks.
Marked response: 28 h

###

# ASSAY_COMMENT: Azithromycin pulmonary tissue pharmacokinetics in mice
# Format: in vivo
# TEST_SETTINGS: female, CF-1, mouse, lung (pulmonary tissue), 33 mg/kg; Pulmonary PK; total dose 100 mg/kg oral; 3 days of dosing, 33.3 mg/kg/dose; read-out: AUC(0-tlast)
MEASURED_METRIC: AUC(0-t) (µg·h/mL)
Numbers only, in µg·h/mL.

Exam item: AUC(0-t) lookup needed for CC[C@H]1OC(=O)[C@H](C)[C@@H](O[C@H]2C[C@@](C)(OC)[C@@H](O)[C@H](C)O2)[C@H](C)[C@@H](O[C@@H]2O[C@H](C)C[C@H](N(C)C)[C@H]2O)[C@](C)(O)C[C@@H](C)CN(C)[C@H](C)[C@@H](O)[C@]1(C)O [Azithromycin] , thanks.
Marked response: 1050

###

# ASSAY_COMMENT: Azithromycin serum pharmacokinetics in mice
# Assay type: in vivo, mouse
# TEST_SETTINGS: female, CF-1, mouse, 33 mg/kg; Serum PK; total dose 100 mg/kg oral; 3 days of dosing, 33.3 mg/kg/dose
MEASURED_METRIC: Cmax (ng/mL)
Answers are plain numbers, in ng/mL.

Exam item: Cmax lookup needed for CC[C@H]1OC(=O)[C@H](C)[C@@H](O[C@H]2C[C@@](C)(OC)[C@@H](O)[C@H](C)O2)[C@H](C)[C@@H](O[C@@H]2O[C@H](C)C[C@H](N(C)C)[C@H]2O)[C@](C)(O)C[C@@H](C)CN(C)[C@H](C)[C@@H](O)[C@]1(C)O [Azithromycin] , thanks.
Marked response: 980

###

# ASSAY_COMMENT: Azithromycin pulmonary tissue pharmacokinetics in mice
# Type: in vivo
# TEST_SETTINGS: female, CF-1, mouse, lung (pulmonary tissue); Pulmonary PK; total dose 100 mg/kg oral; 1 day of dosing, 100 mg/kg/dose; read-out: AUC(0-tlast)
MEASURED_METRIC: AUC(0-t) (µg·h/mL)
Answers are plain numbers, in µg·h/mL.

Exam item: AUC(0-t) lookup needed for `CC[C@H]1OC(=O)[C@H](C)[C@@H](O[C@H]2C[C@@](C)(OC)[C@@H](O)[C@H](C)O2)[C@H](C)[C@@H](O[C@@H]2O[C@H](C)C[C@H](N(C)C)[C@H]2O)[C@](C)(O)C[C@@H](C)CN(C)[C@H](C)[C@@H](O)[C@]1(C)O` , thanks.
Marked response: 970

###

# ASSAY_COMMENT: Azithromycin pulmonary tissue pharmacokinetics in mice
# Assay type: in vivo
# TEST_SETTINGS: female, CF-1, mouse, lung (pulmonary tissue); Pulmonary PK; total dose 100 mg/kg oral; 2 days of dosing, 50 mg/kg/dose; read-out: AUC(0-tlast)
MEASURED_METRIC: AUC(0-t) (µg·h/mL)
Give bare numbers, in µg·h/mL.

Exam item: AUC(0-t) lookup needed for `CC[C@H]1OC(=O)[C@H](C)[C@@H](O[C@H]2C[C@@](C)(OC)[C@@H](O)[C@H](C)O2)[C@H](C)[C@@H](O[C@@H]2O[C@H](C)C[C@H](N(C)C)[C@H]2O)[C@](C)(O)C[C@@H](C)CN(C)[C@H](C)[C@@H](O)[C@]1(C)O` , thanks.
Marked response: 870

###

# ASSAY_COMMENT: Azithromycin pulmonary tissue pharmacokinetics in mice
# Format: in vivo
# TEST_SETTINGS: female, CF-1, mouse, lung (pulmonary tissue); Pulmonary PK; total dose 100 mg/kg oral; 1 day of dosing, 100 mg/kg/dose
MEASURED_METRIC: Tmax (h)
Answers are plain numbers, in h.

Exam item: Tmax lookup needed for `CC[C@H]1OC(=O)[C@H](C)[C@@H](O[C@H]2C[C@@](C)(OC)[C@@H](O)[C@H](C)O2)[C@H](C)[C@@H](O[C@@H]2O[C@H](C)C[C@H](N(C)C)[C@H]2O)[C@](C)(O)C[C@@H](C)CN(C)[C@H](C)[C@@H](O)[C@]1(C)O` , thanks.
Marked response: 4

###

# ASSAY_COMMENT: Azithromycin pulmonary tissue pharmacokinetics in mice
# Assay type: in vivo
# TEST_SETTINGS: female, CF-1, mouse, lung (pulmonary tissue); Pulmonary PK; total dose 100 mg/kg oral; 1 day of dosing, 100 mg/kg/dose
# Protocol: Blood and pulmonary tissue samples were taken starting at 0.5 h post-dose and at predetermined intervals over a 96 h period. Plasma and lung samples were prepared and maintained at −70 C. […] The lower limit of quantification (LLOQ) was 50 ng/ml. […] Interassay variability was <7%. Pharmacokinetic parameters were calculated using the non-compartmental method by WinNonlin 2.1 (Scientific Consulting, Inc.).
MEASURED_METRIC: Cmax (ng/mL)
Give bare numbers, in ng/mL.

Exam item: Cmax lookup needed for `CC[C@H]1OC(=O)[C@H](C)[C@@H](O[C@H]2C[C@@](C)(OC)[C@@H](O)[C@H](C)O2)[C@H](C)[C@@H](O[C@@H]2O[C@H](C)C[C@H](N(C)C)[C@H]2O)[C@](C)(O)C[C@@H](C)CN(C)[C@H](C)[C@@H](O)[C@]1(C)O` , thanks.
Marked response: 40000
